# Test system: OVCAR-5 ovarian
# EXPERIMENT_NOTES: NCI-60 one-dose screen, 48 h
# ASSAY_CONTEXT: 10 µM unless noted
The panel holds about 83,000 compounds, 20% with a hit somewhere; the sample as a whole holds those more often. The source made the active and inactive calls. The calls were made as follows: active = growth percent below 10; inactive = the rest.
Outcomes: TRUE (active), FALSE (inactive)

COMPOUND	CLASS_LABEL
O=C1C(OCCOc2ccccc2)=C(OCCOc2ccccc2)C(=O)c2ccccc21	FALSE
NC(=O)c1cc(I)ccc1NC(=O)COc1ccc(Cl)cc1Cl	FALSE
c1ccc(-c2n(Cc3ccc4ccccc4n3)c3ccccc3[n+]2Cc2ccc3ccccc3n2)cc1	FALSE
CC(=O)OC[C@]1(C)C=C2C(=O)[C@](C)(O)C3(CC3)C(C)=C2[C@H]1OC(C)=O	FALSE
Cc1ccccc1-n1nnc(C(=O)Nc2nc(-c3ccccc3)c(-c3ccccc3)s2)c1C	FALSE
CN1CCc2c(c3ccccc3c3ccccc23)C1	FALSE
CCCCCCCCCCCC(=O)[O][Sn]([CH2]CCC)([CH2]CCC)[CH2]CCC	TRUE
C=C[C@H]1C[C@@H]2C[C@@H]3[C@H]4C/C=C\C(=O)NCCCC5NC(=O)C(=C(O)/C=C/[C@@H]4CC(=O)[C@H]3[C@@H]2[C@H]1C)C5=O (stereo not given in full)	TRUE
Cc1ccc2c(N/N=C\c3ccco3)cc(C)nc2n1	FALSE
Cc1ccc2nc(NC(=O)CSC(=S)N3CCN(Cc4ccccc4)CC3)sc2c1	TRUE
Clc1ccc(Nc2nc(Nc3ccccc3)nc(Nc3ccc(-c4cc(-c5ccc(Cl)cc5)on4)cc3)n2)cc1	FALSE
CCCCNNC(=O)c1ccc(Br)cc1	FALSE
COc1ccc(/C=N/NC(=O)c2cnn(CC(O)Cc3ccccc3)c2N)cc1OC1CCCC1 (stereo not given)	FALSE
CCCCc1ccc(NC(=O)C(F)(F)F)cc1	FALSE
CCOC(=O)C1=C(C)N2C(=NC3=C(CCCC/C3=C\c3ccccc3)C2c2ccccc2)S1 (stereo not given)	FALSE
